target: human ether-à-go-go-related gene (hERG) potassium channel (human, UniProt Q12809); assay: primary screen, population patch clamp on CHO cells stably expressing hERG; higher = less effect of the substance;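 further: peak tail current of the secondary pulse compared with the same well before compound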
Sequence (Q12809 whole entry, looked up): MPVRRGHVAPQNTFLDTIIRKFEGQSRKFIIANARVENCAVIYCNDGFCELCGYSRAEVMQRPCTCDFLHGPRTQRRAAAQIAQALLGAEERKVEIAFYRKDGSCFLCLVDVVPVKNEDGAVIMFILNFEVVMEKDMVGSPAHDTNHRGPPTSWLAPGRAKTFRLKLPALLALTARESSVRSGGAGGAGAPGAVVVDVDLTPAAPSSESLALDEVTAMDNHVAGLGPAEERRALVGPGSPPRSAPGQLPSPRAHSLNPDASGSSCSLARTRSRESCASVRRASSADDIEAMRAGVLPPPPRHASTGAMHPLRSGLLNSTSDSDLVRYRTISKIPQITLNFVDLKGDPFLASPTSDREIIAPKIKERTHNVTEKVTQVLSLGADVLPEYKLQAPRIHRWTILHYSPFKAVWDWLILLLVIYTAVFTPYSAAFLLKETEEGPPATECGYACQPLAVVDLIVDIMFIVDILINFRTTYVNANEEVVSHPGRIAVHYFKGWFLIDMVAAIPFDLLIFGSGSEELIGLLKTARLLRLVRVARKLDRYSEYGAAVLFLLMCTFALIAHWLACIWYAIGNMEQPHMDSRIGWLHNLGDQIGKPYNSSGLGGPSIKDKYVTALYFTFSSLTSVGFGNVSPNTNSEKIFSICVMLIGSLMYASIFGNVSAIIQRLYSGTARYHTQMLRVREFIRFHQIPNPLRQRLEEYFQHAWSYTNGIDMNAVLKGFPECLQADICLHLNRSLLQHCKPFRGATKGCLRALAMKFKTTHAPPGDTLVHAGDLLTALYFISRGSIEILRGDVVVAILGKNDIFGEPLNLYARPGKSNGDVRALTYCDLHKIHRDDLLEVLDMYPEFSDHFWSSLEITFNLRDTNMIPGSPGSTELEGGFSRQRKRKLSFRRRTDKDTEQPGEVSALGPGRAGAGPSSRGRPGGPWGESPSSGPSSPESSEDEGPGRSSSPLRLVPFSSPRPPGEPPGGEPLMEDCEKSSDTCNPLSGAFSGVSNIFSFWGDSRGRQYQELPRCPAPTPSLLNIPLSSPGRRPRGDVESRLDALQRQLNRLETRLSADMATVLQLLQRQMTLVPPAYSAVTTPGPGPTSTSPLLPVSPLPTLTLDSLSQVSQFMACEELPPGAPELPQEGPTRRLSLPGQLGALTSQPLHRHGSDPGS
Among all 310,000 compounds or so, about 14,000 (4.5%) showed an effect of 50% or more. Effects have a minus sign here. What follows is part of a selection rich in strong results, with near analogues and random picks from the rest.
Assignment: determine reported hERG current change (%, negative = inhibition) at 10uM for the given molecules.
Reply numerically in %, unit not repeated.

The molecule CCOC(=O)c1cnc2ccc(OCC)cc2c1NCCCN1CCOCC1.Cl showed hERG current change (%, negative = inhibition) at 10uM equal to -75.6

The molecule CCOC(=O)c1cnc2c(cnn2C)c1NCCCn1ccnc1 showed hERG current change (%, negative = inhibition) at 10uM equal to -35.9

The molecule CCOC(=O)c1cnc2ccc(C(=O)OC)cc2c1NCCCN1CCOCC1 showed hERG current change (%, negative = inhibition) at 10uM equal to -60.5

The molecule Cc1ccc(/C=C/C(=O)OCC(=O)NC(=O)NCc2ccco2)cc1 showed hERG current change (%, negative = inhibition) at 10uM equal to 18.7

The molecule CCOC(=O)c1cnc2ccc(C(=O)OC)cc2c1NCCN1CCOCC1 showed hERG current change (%, negative = inhibition) at 10uM equal to -30.2
